- System: RPMI-8226 leukemia
- Assay summary: NCI-60 one-dose screen, 48 h (100 = growth as untreated, 0 = no growth, -100 = all killed)
- Assay setup: 10 µM unless noted
About 83,000 compounds went through this panel and 20% of them were active in at least one assay; those are over-represented in the sample as a whole.
Could you mark each record Fulfilled if its growth falls strictly under 20%, and Not fulfilled if it equals or exceeds it?

Molecular string	Class assignment
COc1cc(-c2nc3occn3c2-c2ccnc(NCCNS(=O)(=O)c3ccc(Cl)cc3)n2)ccc1F	Not fulfilled
COc1ccc2nc(N=Nc3c(O)ccc4ccccc34)sc2c1	Not fulfilled
O=S(=O)(NCCNc1nccc(-c2c(-c3ccc(F)c(O)c3)nc3sccn23)n1)c1ccccc1	Not fulfilled
CCCCCCOc1ccc(C(=N)N(CCCC)CCCC)c2ccccc12	Fulfilled

Now, please, on to the next molecule.
-- ask Hello, is growth of the following molecule strictly smaller than 20%? Cc1ccc(C(=O)Nc2ccccc2C(=O)N/N=C(\c2ccccc2)c2ccccn2)cc1
-- reply Fulfilled

====

- Tested on: M14 melanoma
- Assay summary: NCI-60 one-dose screen, 48 h (100 = growth as untreated, 0 = no growth, -100 = all killed)
- Assay setup: 10 µM unless noted
This is part of a sample that, as a whole, favours compounds with a hit. Of some 83,000 tested, about 20% had one in any assay.
Record form. Attribute: growth. Fill in for each entry.
Numbers only, in %.

Report growth for every entry below.
1. O=C1Nc2ccccc2/C1=C\c1cccc(/C=C2/C(=O)Nc3ccccc32)n1
2. CC(=O)OC1CCC2(C)C(CCC3C4CC=C(C(C)=O)C4(C)OC(=O)CC32)C1 (stereo unspecified)
3. CN(C)C(C(N)=O)c1ccc(Cl)cc1 (stereo unspecified)
4. O=C1OC(=O)C2C1CC=CC2c1ccccc1 (stereo unspecified)
5. c1ccc(CCSc2ncnc3nc[nH]c23)cc1
6. COc1ccc(-c2nn(Cc3ccccc3)c3c2-c2oncc2CC3)cc1OC

-- reply
1: -69.2; 2: -31.6; 3: 96.7; 4: 97.4; 5: 97.5; 6: 127

====

- Test system: EKVX NSCLC
- Assay summary: NCI-60 one-dose screen, 48 h
- Assay setup: 10 µM unless noted
Compounds without any hit were thinned out: in the full panel of roughly 83,000, 20% have a hit. Calls of active or inactive are those of the source. The calls were made as follows: active = growth percent below 10; inactive = the rest.
Select the correct class. Options are active, inactive and nothing else.

Some solved cases for reference:
Compound	Class assignment
COc1ccccc1/C=N/NC1=NC2C(N1)N(C)C(=O)N2C (configuration not stated)	inactive
COc1cc(NCCCN(CC(C)C)C2CCCC2)c2ncccc2c1	inactive
COc1cc(/C=C/C(=O)c2ccc(Nc3ncnc4ccccc34)cc2)cc(OC)c1	inactive
COc1cccc(-c2nc3occn3c2-c2ccnc(NCCCNS(=O)(=O)c3cccc(F)c3)n2)c1	inactive
O=C(N/N=C/c1cccnc1)c1ccccc1Nc1cccc(C(F)(F)F)c1	inactive

-- ask // param item: COc1ccc(/C(=C\c2ccccc2)C(=O)O)cc1OC ; yields the recorded call
-- reply inactive

-- ask // param item: Cc1[nH]c(C(=O)Nc2ccccc2OCc2cccc(C(=O)NCCN)c2)c(Cl)c1Cl ; yields the recorded call
-- reply inactive

====

- Test system: HT29 colon
- Assay summary: NCI-60 one-dose screen, 48 h
- Assay setup: 10 µM unless noted
Compounds without any hit were thinned out: in the full panel of roughly 83,000, 20% have a hit. Calls of active or inactive are those of the source. Rule for the calls: active = growth percent below 10; inactive = the rest.
Select the correct class. Options are 1 for active, -1 for inactive and nothing else.

Some solved cases for reference:
Molecule	Class assignment
Cc1ccc(Nc2cc(=S)nc(N)[nH]2)cc1C	-1
Nc1nc(N)nc(NCc2ccccc2)n1	-1
Cc1ccc(-c2c(Br)c(OC(=O)CO[C@@H]3C[C@H](C)CC[C@H]3C(C)C)c(-c3ccc(C)cc3C)c(Br)c2OC(=O)CO[C@H]2C[C@@H](C)CC[C@@H]2C(C)C)c(C)c1	-1
CC[C@@]12C=CCN3CC[C@]4(c5cc(NC(=O)COc6cc(OCC(=O)Nc7cc8c(cc7OC)N(C)[C@H]7[C@@](O)(C(=O)OC)[C@H](OC(C)=O)[C@]9(CC)C=CCN%10CC[C@]87[C@@H]%109)cc7oc(-c8ccccc8)cc(=O)c67)c(OC)cc5N(C)[C@@H]4[C@](O)(C(=O)OC)[C@H]1OC(C)=O)[C@H]32	1
O=C(Nc1ccc2cc3ccc(NC(=O)NC4CCCCC4)cc3nc2c1)NC1CCCCC1	-1
COc1ccc(C2CC(c3cccc(Nc4ccncc4)c3)=NN2c2cc(Cl)cc(Cl)c2)cc1 (stereo not drawn)	1
Cn1c(=O)c2[nH]c(CCCc3nc4c([nH]3)c(=O)n(C)c(=O)n4C)nc2n(C)c1=O	-1
Nc1c(C(=O)Nc2cccc3ccncc23)sc2nc3c(cc12)C(=O)CCC3	-1

-- ask // param item: O=S(=O)(NCCNc1nccc(-c2c(-c3cccc(F)c3)nc3occn23)n1)c1cccc2ccccc12 ; yields the recorded call
-- reply -1

-- ask // param item: O=S(=O)(NCCNc1nccc(-c2c(-c3ccc(F)c(O)c3)nc3occn23)n1)c1ccccc1 ; yields the recorded call
-- reply -1

-- ask // param item: Cc1cccc(Oc2ccc(Nc3ncnc4ccc(NC(=O)CN(C)C)cc34)cc2Cl)c1 ; yields the recorded call
-- reply 1

-- ask // param item: O=S(=O)(c1ccccc1)N1CCCc2ccccc21 ; yields the recorded call
-- reply -1

-- ask // param item: O=C(CNCCO)Nc1ccc2ncnc(Nc3ccc(OCc4cccc(F)c4)c(Cl)c3)c2c1 ; yields the recorded call
-- reply -1

====

- Test system: KM12 colon
- Assay summary: NCI-60 one-dose screen, 48 h (100 = growth as untreated, 0 = no growth, -100 = all killed)
- Assay setup: 10 µM unless noted
This is part of a sample that, as a whole, favours compounds with a hit. Of some 83,000 tested, about 20% had one in any assay.
Record form. Attribute: growth. Fill in for each entry.
One number for each entry, in %.

Molecule	Target of assay	growth [%]
COc1cc(NCCCN(CC(C)C)CC(C)C)c2ncccc2c1	KM12 colon	84.7

Report growth for every entry below.
1. CCCC1C(C(=O)OCC)=C(N)Oc2cc(O)ccc21 (stereo not given)
2. COc1cc(C2NC(c3cc(OC)c(OC)c(OC)c3)C(C#N)(C#N)C2(C#N)C#N)cc(OC)c1OC (stereo not given)
3. CC(C)(O)C1CCCN1C(=O)c1ccccc1I (stereo not given)
4. Cc1ccc(S(=O)(=O)Nc2ccc(Cl)cc2)cc1

-- reply
1: 98.2; 2: 99.5; 3: 94.3; 4: 105

====

- System: U251 CNS
- Assay summary: NCI-60 one-dose screen, 48 h
- Assay setup: 10 µM unless noted
Compounds without any hit were thinned out: in the full panel of roughly 83,000, 20% have a hit. The source made the active and inactive calls. Rule for the calls: active = growth percent below 10; inactive = the rest.
Select the correct class. Options are T for active, F for inactive and nothing else.

Compound	Class assignment
COc1ccc(-c2nc(SC(C)C)nc(NNC(N)=O)c2C#N)cc1	F
CN(C)C(=O)c1cc2cnc(Nc3ccc(-c4csc5c(=O)cc(N6CCOCC6)oc45)cc3)nc2n1C1CCCC1	T

-- ask // param item: COc1ccc2c(c1)OC1=C(C(=O)OC1)C2c1cc(OC)c(OC)c(OC)c1 (stereo not given) ; yields the recorded call
-- reply F

-- ask // param item: Brc1ccc(C2CC(c3cccc(Nc4ccncc4)c3)=NN2c2ccccc2)cc1 (stereo not given) ; yields the recorded call
-- reply F

-- ask // param item: CCOC(=O)c1c(SC)nn(-c2cc(=O)[nH]c3ccc(Br)cc23)c1N ; yields the recorded call
-- reply F

-- ask // param item: Cc1ccc(Nc2cc(=S)nc(N)[nH]2)cc1C ; yields the recorded call
-- reply F

-- ask // param item: CCCCCOc1ccc(/C=N/Nc2cc(C)nc3ccc(Br)cc23)cc1 ; yields the recorded call
-- reply T

====

- Test system: NCI-H322M lung
- Assay summary: NCI-60 one-dose screen, 48 h
- Assay setup: 10 µM unless noted
- Method: Growth inhibition of the NCI-H322M human Non-Small Cell Lung tumor cell line is measured as a screen for anti-cancer activity. Cells are grown in 96 well plates and exposed to the test compound for 48 hours. Compounds are tested at a single concentration, which is 10^-5 M for most compounds. The reported endpoint is percent growth (GI% or GIPRCNT), where numbers from 0 - 100% represent growth inhibition, and numbers from -100% - 0 represent cell death. […]
About 83,000 compounds went through this panel and 20% of them were active in at least one assay; those are over-represented in the sample as a whole. Active and inactive are the calls of the source. How the source made its calls: active means growth percent below 10; inactive means the rest.
Select the correct class. Options are TRUE = active, FALSE = inactive and nothing else.

Some solved cases for reference:
Compound	Class assignment
C#Cc1cccc(NC(=O)Nc2ccc(NC(=O)CCl)cc2)c1	FALSE
COc1ccc(C(O)c2cc3c(N)c(C(=O)Nc4ccc(Cl)cc4)sc3nc2C)cc1 (centres undefined)	FALSE
CCN(CCNc1cc(OC)cc2cccnc12)CCc1ccccc1	FALSE
COc1cc(C2CC(c3cccc(Nc4ccncc4)c3)=NN2c2ccc(Cl)cc2)cc(OC)c1OC (centres undefined)	FALSE
COc1cc2c(cc1[N+](=O)[O-])-c1ccc([N+](=O)[O-])cc1/C2=N\O	FALSE

-- ask // param item: Cn1c(COC(=O)N2CCCCC2)nc2c(N3CCOCC3)nc(-c3ccccc3)nc21 ; yields the recorded call
-- reply FALSE

-- ask // param item: COc1ccccc1N1CCN(C(=O)c2ccc3nc(NC(=O)c4ccc(NCCc5ccccc5)c([N+](=O)[O-])c4)sc3c2)CC1 ; yields the recorded call
-- reply FALSE

-- ask // param item: CCN(CC)S(=O)(=O)c1cccc([N+](=O)[O-])c1 ; yields the recorded call
-- reply FALSE

-- ask // param item: COc1cc(COC(=O)CCCCC[P+](c2ccccc2)(c2ccccc2)c2ccccc2)c(OC)c2c1OCO2 ; yields the recorded call
-- reply FALSE

-- ask // param item: COC(=O)C(c1ccccc1)C(CC(=O)c1ccccc1)c1ccccc1 (centres undefined) ; yields the recorded call
-- reply FALSE

-- ask // param item: COc1ccc(C(=O)c2cc3c(N)c(C(=O)Nc4cccc(Cl)c4)sc3nc2C)cc1 ; yields the recorded call
-- reply FALSE

-- ask // param item: O=C(Nc1ccc(F)cc1)c1c(NC(=O)C(F)(F)F)sc2c1CCCCC2 ; yields the recorded call
-- reply FALSE

-- ask // param item: CC1(C)[C@H](O)CC[C@]2(C)[C@@H]1CC[C@@]13C[C@@H](CC[C@H]12)[C@@](O)(CO)C3 ; yields the recorded call
-- reply FALSE

-- ask // param item: CCCCCCCCCCN=C(N)N=C(N)N ; yields the recorded call
-- reply FALSE

-- ask // param item: CC(=O)c1cc2c(N)c(C(=O)Nc3cncc4ccccc34)sc2nc1C ; yields the recorded call
-- reply FALSE

-- ask // param item: COc1cc(NCCCN(CC(C)C)C2CCCC2)c2ncccc2c1 ; yields the recorded call
-- reply FALSE

-- ask // param item: COc1cccc(C(Cc2ccccc2)Nc2ccccc2)c1OC (centres undefined) ; yields the recorded call
-- reply FALSE

-- ask // param item: c1ccc(-c2nnc(Nc3ccc4c(c3)OCCO4)o2)c(NCc2ccncc2)c1 ; yields the recorded call
-- reply FALSE

-- ask // param item: COc1cc2nc(-c3ccc(C(F)(F)F)cc3)cc(OCCN3CCC(O)CC3)c2cc1OC ; yields the recorded call
-- reply FALSE

-- ask // param item: c1ccc2c(-c3c4ccsc4cc4[nH]c5ccccc5c34)c[nH]c2c1 ; yields the recorded call
-- reply FALSE

-- ask // param item: COc1ccc(C2CC(c3cccc(Nc4ccncc4)c3)=NN2c2ccccc2)cc1 (centres undefined) ; yields the recorded call
-- reply FALSE

-- ask // param item: CN1C2CCC1CN(c1cnc(C(=O)Nc3cc(F)cc4cccnc34)cn1)C2 ; yields the recorded call
-- reply FALSE
